- System: LOX IMVI
- protocol.details: Growth inhibition of human LOXIMVI cells at 10^-5 M incubated for 48 hrs by sulforhodamine B assay
- Format: functional
- condition.label: read-out: GI
// values below are reported inhibition of growth at 10 µM
measured.quantity: inhibition of growth at 10 µM (%)

[[record]]
compound = "NNC1=Nc2c(sc3ccc(Cl)cc23)C(c2cccc([N+](=O)[O-])c2)N1 (configuration not stated)"
observed_result = 2.22

[[record]]
compound = "O=C1CC(=O)N(C2=Nc3c(sc4ccc(Cl)cc34)C(c3cccc([N+](=O)[O-])c3)N2)N1 (configuration not stated)"
observed_result = 2.94

[[record]]
compound = "N#Cc1cnn(C2=Nc3c(sc4ccc(Cl)cc34)C(c3cccc([N+](=O)[O-])c3)N2)c1N (configuration not stated)"
observed_result = 12.5

[[record]]
compound = "O=C1Nc2c(sc3ccc(Cl)cc23)C(c2ccc3ccccc3c2)N1 (configuration not stated)"
observed_result = -0.62

[[record]]
compound = "O=C1SC2=Nc3c(sc4ccc(Cl)cc34)C(c3ccc4ccccc4c3)N2C1=O (configuration not stated)"
observed_result = 1.85

[[record]]
compound = "O=C1Nc2c(sc3ccc(Cl)cc23)C(c2cccc([N+](=O)[O-])c2)N1 (configuration not stated)"
observed_result = 4.86

[[record]]
compound = "O=C1/C(=C\\c2cccc([N+](=O)[O-])c2)Sc2ccc(Cl)cc21"
observed_result = 8.68

[[record]]
compound = "N=C1Nc2c(sc3ccc(Cl)cc23)C(c2cccc([N+](=O)[O-])c2)N1 (configuration not stated)"
observed_result = -9.93

[[record]]
compound = "N=C1Nc2c(sc3ccc(Cl)cc23)C(c2cccc(Br)c2)N1 (configuration not stated)"
observed_result = 1.33

[[record]]
compound = "O=[N+]([O-])c1cccc(C2NC(=S)Nc3c2sc2ccc(Cl)cc32)c1 (configuration not stated)"
observed_result = 7.83

[[record]]
compound = "O=C1Nc2c(sc3ccc(Cl)cc23)C(c2ccccc2O)N1 (configuration not stated)"
observed_result = -0.62

[[record]]
compound = "S=C1Nc2c(sc3ccc(Cl)cc23)C(c2ccc3ccccc3c2)N1 (configuration not stated)"
observed_result = 7.47


Attribution: ChEMBL document CHEMBL4414672
